# System: tobacco budworm (Heliothis virescens [Fabricius])
# method notes: surface-treated diet test against tobacco budworm
# Assay type: in vivo
# condition info: 0.25 millimolar on the surface of the diet; second instar larvae; five-day exposure; inhibition of insect weight relative to untreated controls
readout label: Percent Growth Inhibition (%)

compound: OC(c1ccc(OC(F)(F)F)cc1)(c1ccc(OC(F)(F)F)cc1)C1CCN(Cc2ccc(C3OC4CCCCC4O3)cc2)CC1 (stereo not drawn)
target system: tobacco budworm (Heliothis virescens [Fabricius])
readout label: Percent Growth Inhibition
reported result: 100
--
compound: [O-][N+]1(Cc2ccc(C3(COc4ccccc4)OCCO3)cc2)CCC(C(O)(c2ccc(OC(F)(F)F)cc2)c2ccc(OC(F)(F)F)cc2)CC1 (stereo not drawn)
target system: tobacco budworm (Heliothis virescens [Fabricius])
readout label: Percent Growth Inhibition
reported result: 100
--
compound: OC(c1ccc(OC(F)(F)F)cc1)(c1ccc(OC(F)(F)F)cc1)C1CCN(Cc2ccc(C3COCO3)cc2)CC1 (stereo not drawn)
target system: tobacco budworm (Heliothis virescens [Fabricius])
readout label: Percent Growth Inhibition
reported result: 100

* * *

# System: tobacco budworm (Heliothis virescens [Fabricius])
# method notes: surface-treated diet test against tobacco budworm
# Assay type: in vivo
# condition info: 0.25 millimolar on the surface of the diet; second instar larvae; five-day exposure; compared to the total number of insects infested

molecule: CC1CC(C)(C)OC(c2ccc(CN3CCC(C(O)(c4ccc(OC(F)(F)F)cc4)c4ccc(OC(F)(F)F)cc4)CC3)cc2)O1 (stereo not drawn) [Compound 78]
target system: tobacco budworm (Heliothis virescens [Fabricius])
measure unit: %
Percent Mortality: 100
//
molecule: CC1(C)CCOC(c2ccc(C[N+]3([O-])CCC(C(O)(c4ccc(OC(F)(F)F)cc4)c4ccc(OC(F)(F)F)cc4)CC3)cc2)O1 (stereo not drawn) [Compound 70]
target system: tobacco budworm (Heliothis virescens [Fabricius])
measure unit: %
Percent Mortality: 100
//
molecule: OC(c1ccc(OC(F)(F)F)cc1)(c1ccc(OC(F)(F)F)cc1)C1CCN(Cc2ccc(C3COCO3)cc2)CC1 (stereo not drawn) [Compound 103]
target system: tobacco budworm (Heliothis virescens [Fabricius])
measure unit: %
Percent Mortality: 100
//
molecule: CCCCN1CCSC1c1ccc(CN2CCC(C(O)(c3ccc(OC(F)(F)F)cc3)c3ccc(OC(F)(F)F)cc3)CC2)cc1 (stereo not drawn) [Compound 59]
target system: tobacco budworm (Heliothis virescens [Fabricius])
measure unit: %
Percent Mortality: 100
//
molecule: CC1(C)COC(c2ccc(C[N+]3([O-])CCC(C(O)(c4ccc(OC(F)(F)F)cc4)c4ccc(OC(F)(F)F)cc4)CC3)cc2)O1 (stereo not drawn) [Compound 112]
target system: tobacco budworm (Heliothis virescens [Fabricius])
measure unit: %
Percent Mortality: 100
//
molecule: OC(c1ccc(OC(F)(F)F)cc1)(c1ccc(OC(F)(F)F)cc1)C1CCN(Cc2ccc(C3OCC(c4ccccc4)O3)cc2)CC1 (stereo not drawn) [Compound 53]
target system: tobacco budworm (Heliothis virescens [Fabricius])
measure unit: %
Percent Mortality: 100

* * *

# Tested on: tobacco budworm (Heliothis virescens [Fabricius])
# method notes: surface-treated diet test against tobacco budworm
# Type: in vivo
# condition info: 0.25 millimolar on the surface of the diet; second instar larvae; five-day exposure; compared to the total number of insects infested

compound: CC1(C)OC(c2ccc(CN3CCC(C(O)(c4ccc(OC(F)(F)F)cc4)c4ccc(OC(F)(F)F)cc4)CC3)cc2)OC1(C)C [Compound 122]
Percent Mortality (%): 100

compound: CC1COC(c2ccc(C[N+]3([O-])CCC(C(O)(c4ccc(OC(F)(F)F)cc4)c4ccc(OC(F)(F)F)cc4)CC3)cc2F)O1 (stereo not drawn) [Compound 180]
Percent Mortality (%): 100

compound: [O-][N+]1(Cc2ccc(C3OCCO3)c(F)c2)CCC(C(O)(c2ccc(OC(F)(F)F)cc2)c2ccc(OC(F)(F)F)cc2)CC1 (stereo not drawn) [Compound 175]
Percent Mortality (%): 100

compound: OC(c1ccc(OC(F)(F)F)cc1)(c1ccc(OC(F)(F)F)cc1)C1CCN(Cc2ccc(OCC3OCCCO3)cc2)CC1 [Compound 199]
Percent Mortality (%): 100

compound: [O-][N+]1(Cc2ccc(C3(c4ccc(Cl)nc4)OCCO3)cc2)CCC(C(O)(c2ccc(OC(F)(F)F)cc2)c2ccc(OC(F)(F)F)cc2)CC1 (stereo not drawn) [Compound 87]
Percent Mortality (%): 17

compound: OC(c1ccc(OC(F)(F)F)cc1)(c1ccc(OC(F)(F)F)cc1)C1CCN(Cc2ccc(C3OCCO3)c(F)c2)CC1 [Compound 173]
Percent Mortality (%): 100

* * *

Below, each of the molecules is paired with its reported Percent Mortality value.
# Test system: tobacco budworm (Heliothis virescens [Fabricius])
# method notes: surface-treated diet test against tobacco budworm
# Type: in vivo
# condition info: 0.25 millimolar on the surface of the diet; second instar larvae; five-day exposure; compared to the total number of insects infested

molecule: O=C(NCC1COC(c2ccc(CN3CCC(C(O)(c4ccc(OC(F)(F)F)cc4)c4ccc(OC(F)(F)F)cc4)CC3)cc2)O1)OCc1ccccc1 (stereo not drawn)
target system: tobacco budworm (Heliothis virescens [Fabricius])
Percent Mortality (%): 100
--
molecule: OC(c1ccc(OC(F)(F)F)cc1)(c1ccc(OC(F)(F)F)cc1)C1CCN(Cc2ccc(C3O[C@H]4CCCC[C@H]4O3)cc2)CC1 (stereo partly drawn)
target system: tobacco budworm (Heliothis virescens [Fabricius])
Percent Mortality (%): 100
--
molecule: [O-][N+]1(Cc2ccc(C3OCC4OC4CO3)cc2)CCC(C(O)(c2ccc(OC(F)(F)F)cc2)c2ccc(OC(F)(F)F)cc2)CC1 (stereo not drawn)
target system: tobacco budworm (Heliothis virescens [Fabricius])
Percent Mortality (%): 100
--
molecule: C[C@H]1OC(c2ccc(CN3CCC(C(O)(c4ccc(OC(F)(F)F)cc4)c4ccc(OC(F)(F)F)cc4)CC3)cc2)O[C@@H]1C (relative stereo)
target system: tobacco budworm (Heliothis virescens [Fabricius])
Percent Mortality (%): 100
--
molecule: [O-][N+]1(Cc2ccc(C3O[C@@H]4CCCC[C@H]4O3)cc2)CCC(C(O)(c2ccc(OC(F)(F)F)cc2)c2ccc(OC(F)(F)F)cc2)CC1 (relative stereo)
target system: tobacco budworm (Heliothis virescens [Fabricius])
Percent Mortality (%): 100
--
molecule: [O-][N+]1(Cc2ccc(C3OCC(c4ccccc4)O3)cc2)CCC(C(O)(c2ccc(OC(F)(F)F)cc2)c2ccc(OC(F)(F)F)cc2)CC1 (stereo not drawn)
target system: tobacco budworm (Heliothis virescens [Fabricius])
Percent Mortality (%): 100

* * *

# System: tobacco budworm (Heliothis virescens [Fabricius])
# method notes: surface-treated diet test against tobacco budworm
# Type: in vivo
# condition info: 0.25 millimolar on the surface of the diet; second instar larvae; five-day exposure; compared to the total number of insects infested

compound: [O-][N+]1(Cc2ccc(C3COCO3)cc2)CCC(C(O)(c2ccc(OC(F)(F)F)cc2)c2ccc(OC(F)(F)F)cc2)CC1 (stereo not shown)
Percent Mortality [%]: 100
--
compound: CCCC1COC(c2ccc(C[N+]3([O-])CCC(C(O)(c4ccc(OC(F)(F)F)cc4)c4ccc(OC(F)(F)F)cc4)CC3)cc2)O1 (stereo not shown)
Percent Mortality [%]: 100
--
compound: [O-][N+]1(Cc2ccc(CC3OCCO3)cc2)CCC(C(O)(c2ccc(OC(F)(F)F)cc2)c2ccc(OC(F)(F)F)cc2)CC1 (stereo not shown)
Percent Mortality [%]: 100
--
compound: OC(c1ccc(OC(F)(F)F)cc1)(c1ccc(OC(F)(F)F)cc1)C1CCN(Cc2ccc(C3OCCS3)cc2)CC1 (stereo not shown)
Percent Mortality [%]: 100
--
compound: CC1(C)OCC(c2ccc(CN3CCC(C(O)(c4ccc(OC(F)(F)F)cc4)c4ccc(OC(F)(F)F)cc4)CC3)cc2)O1 (stereo not shown)
Percent Mortality [%]: 100
--
compound: CC1CCOC(c2ccc(CN3CCC(C(O)(c4ccc(OC(F)(F)F)cc4)c4ccc(OC(F)(F)F)cc4)CC3)cc2)O1 (stereo not shown)
Percent Mortality [%]: 67
--
compound: [O-][N+]1(Cc2ccc(C3OCC(COc4ccccc4)O3)cc2)CCC(C(O)(c2ccc(OC(F)(F)F)cc2)c2ccc(OC(F)(F)F)cc2)CC1 (stereo not shown)
Percent Mortality [%]: 100
--
compound: CC1(C)OCC(COc2ccc(CN3CCC(C(O)(c4ccc(OC(F)(F)F)cc4)c4ccc(OC(F)(F)F)cc4)CC3)cc2)O1 (stereo not shown)
Percent Mortality [%]: 100
--
compound: COc1ccc(C2(COc3ccc(CN4CCC(C(O)(c5ccc(OC(F)(F)F)cc5)c5ccc(OC(F)(F)F)cc5)CC4)cc3)OCCO2)cc1
Percent Mortality [%]: 100
--
compound: COC(=O)N1CCSC1c1ccc(CN2CCC(C(O)(c3ccc(OC(F)(F)F)cc3)c3ccc(OC(F)(F)F)cc3)CC2)cc1 (stereo not shown)
Percent Mortality [%]: 100
--
compound: COCC1COC(c2ccc(CN3CCC(C(O)(c4ccc(OC(F)(F)F)cc4)c4ccc(OC(F)(F)F)cc4)CC3)cc2)O1 (stereo not shown)
Percent Mortality [%]: 100
--
compound: OC(c1ccc(OC(F)(F)F)cc1)(c1ccc(OC(F)(F)F)cc1)C1CCN(Cc2ccc(C3(c4ccc(Cl)nc4)OCCO3)cc2)CC1
Percent Mortality [%]: 0
--
compound: OC(c1ccc(OC(F)(F)F)cc1)(c1ccc(OC(F)(F)F)cc1)C1CCN(Cc2ccc(C3O[C@H]4COC[C@H]4O3)cc2)CC1 (stereo partly shown)
Percent Mortality [%]: 100
